target: PU.1 (human, UniProt P17947 1-270)
protocol description: MST; MST: 20 mM Tris-HCl pH 7.6, 1.5 mM MgCl2, 0.5 mM EGTA, 10% glycerol, 300 mM KCl, 10 mM DTT, 25 C; 50 nM Cy3-dsDNA, PU.1 1:1 dilutions from 23 uM
test context: protein: recombinant; tags: N-terminal His-tag; label: Cy3 on upper strand
Could you please report measured pKd for the items listed next?
As a rule, pKd stands for the negative log10 of the concentration, concentration in M.

Query: Indicate the recorded pKd value for this binder: PU.1 motif oligo 45 (dsDNA) DNA 1: ACGTCATTTCCTCCTTACGT DNA 2: ACGTAAGGAGGAAATGACGT
Response: 6.08

Query: Output pKd of PU.1 motif oligo 55 (dsDNA) DNA 1: ACGTCACTTCCCTCCCACGT DNA 2: ACGTGGGAGGGAAGTGACGT
Response: 5.99

Query: Indicate its recorded pKd; the binder in question is PU.1 motif oligo 50 (dsDNA) DNA 1: ACGTCTCTTCCCCTCTACGT DNA 2: ACGTAGAGGGGAAGAGACGT
Response: 5.67

Query: Please report the measured pKd for PU.1 motif oligo 11 (dsDNA) DNA 1: ACGTCACTTCCTCAAAACGT DNA 2: ACGTTTTGAGGAAGTGACGT
Response: 6.62

Query: # return recorded pKd for input PU.1 motif oligo 71 (dsDNA) DNA 1: ACGTTGCTTCCTCCCTACGT DNA 2: ACGTAGGGAGGAAGCAACGT
Response: 5.66

Query: Indicate its recorded pKd; the binder in question is PU.1 motif oligo 62 (dsDNA) DNA 1: ACGTCTCTTCCTCCCTACGT DNA 2: ACGTAGGGAGGAAGAGACGT
Response: 5.71
